All values here come from patent US9409952B2.

# EXPERIMENT SUMMARY: Metabolic stability in human hepatic microsome
# Type: in vitro ADME
# RECORDED CONDITIONS: microsomes, pH 7.4; human hepatic microsome, NADPH(+); read-out: CL NADPH(+)
Positions of bridges follow the written chain, without caps; N, C: chain ends. Non-standard residues stand in square brackets, D forms with d. Residues, ends and D or L forms follow the SMILES beside them. *: point of attachment. NMeF = CN[C@@H](Cc1ccccc1)C(=O)O; NMeI = CC[C@H](C)[C@H](NC)C(=O)O; NMeL = CN[C@@H](CC(C)C)C(=O)O; Pip = O=C(O)[C@@H]1CCCCN1; NMeA = CN[C@@H](C)C(=O)O; Piperidide = C1CCN(*)CC1; dNMeA = CN[C@H](C)C(=O)O; β3hA = C[C@H](N)CC(=O)O; Sar = CNCC(=O)O; tBu = CC(C)(C)*
Label 1 (yes) for high-side microsomal CLint at 1 uM (at or above 100 µL/min/mg) and 0 (no) for low-side microsomal CLint at 1 uM (below it).

Check out these entries, answers already filled in.
CC(C)C[C@@H]1NC(=O)[C@H](CC(C)C)N(C)C(=O)[C@H](C)N(C)C(=O)[C@@H](C(C)C)NC(=O)C[C@@H](C(=O)N2CCCCC2)NC(=O)[C@H]([C@@H](C)O)NC(=O)[C@H](C)N(C)C(=O)CN(C)C(=O)[C@H](CC(C)C)N(C)C(=O)[C@H](Cc2c[nH]c3ccccc23)NC(=O)[C@H](Cc2ccccc2)N(C)C1=O [DP-622] ([dV][NMeA][NMeL]L[NMeF]W[NMeL][Sar][NMeA]TD-Piperidide; lactam N-11) :: 0 (no)
CC[C@H](C)[C@H]1C(=O)NCC(=O)N2CCCC[C@H]2C(=O)N[C@@H]([C@@H](C)O)C(=O)N2CCC[C@H]2C(=O)N[C@@H](Cc2ccccc2)C(=O)N[C@H](C(=O)N2CCCCC2)CC(=O)N(C)[C@@H](C)C(=O)N[C@@H](Cc2ccccc2)C(=O)N(C)[C@@H](CC(C)C)C(=O)N[C@@H](CC(C)C)C(=O)N1C [DP-557] ([NMeA]F[NMeL]L[NMeI]G[Pip]TPFD-Piperidide; lactam N-11) :: 0 (no)
CC[C@H](C)[C@H]1C(=O)N[C@@H](C)CC(=O)N(C)[C@H](C)C(=O)N(C)[C@@H](Cc2ccccc2)C(=O)N(C)[C@@H](CC(C)C)C(=O)N[C@@H]([C@@H](C)O)C(=O)N(C)CC(=O)N[C@@H](COC(C)(C)C)C(=O)N(C)[C@@H](CC(C)C)C(=O)N1C [DP-789] (cyclo([NMeF][NMeL]T[Sar]S(tBu)[NMeL][NMeI][β3hA][dNMeA])) :: 1 (yes)

Could you tell me if the measured microsomal CLint at 1 uM of CC(C)C[C@H]1C(=O)N(C)[C@@H](C)C(=O)N[C@H](C(=O)N(C)[C@@H](Cc2ccccc2)C(=O)N[C@@H](C)C(=O)N2CCCCC2)CC(=O)N(C)CC(=O)N[C@@H](C(C)C)C(=O)N(C)[C@@H](Cc2ccccc2)C(=O)N(C)[C@@H](CC(C)C)C(=O)N[C@@H]([C@@H](C)O)C(=O)N(C)CC(=O)N1C [DP-388] ([Sar]V[NMeF][NMeL]T[Sar][NMeL][NMeA]D[NMeF]A-Piperidide; lactam N-9) reaches 100 µL/min/mg or more?
0 (no)

Try CC(C)C[C@@H]1NC(=O)[C@H]([C@@H](C)O)NC(=O)[C@H](CC(C)C)N(C)C(=O)CN(C)C(=O)[C@H](Cc2ccccc2)N(C)C(=O)[C@H](C(C)C)NC(=O)C[C@@H](C(=O)N2CCCCC2)NC(=O)[C@H](CC(C)C)N(C)C1=O [DP-690] (V[NMeF][Sar][NMeL]TL[NMeL]D-Piperidide; lactam N-8) next.
1 (yes)
